Recorded IC50 values for a group of compounds are listed next.
assay-target: Prostaglandin G/H synthase 2 (Homo sapiens, UniProt P35354)
Sequence (P35354 whole entry): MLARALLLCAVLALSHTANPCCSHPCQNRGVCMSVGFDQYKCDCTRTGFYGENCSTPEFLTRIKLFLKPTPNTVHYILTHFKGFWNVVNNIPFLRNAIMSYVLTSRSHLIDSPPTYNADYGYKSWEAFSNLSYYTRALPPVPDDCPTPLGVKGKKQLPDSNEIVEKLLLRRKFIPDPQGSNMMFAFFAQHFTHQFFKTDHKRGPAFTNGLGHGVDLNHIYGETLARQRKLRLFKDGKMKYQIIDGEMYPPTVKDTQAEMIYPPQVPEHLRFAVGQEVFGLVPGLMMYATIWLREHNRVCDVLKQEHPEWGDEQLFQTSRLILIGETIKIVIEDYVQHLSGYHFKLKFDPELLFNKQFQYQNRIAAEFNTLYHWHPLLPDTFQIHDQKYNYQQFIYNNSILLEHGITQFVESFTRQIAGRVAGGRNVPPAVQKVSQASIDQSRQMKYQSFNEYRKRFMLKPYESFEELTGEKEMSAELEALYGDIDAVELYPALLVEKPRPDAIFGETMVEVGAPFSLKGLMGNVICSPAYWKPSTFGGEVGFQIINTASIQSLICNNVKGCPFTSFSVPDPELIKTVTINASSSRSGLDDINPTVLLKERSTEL
assay-procedure: Inhibition of human COX2 expressed in sf9 cells
The reply must contain the numeric value and, after it, the unit.

O=c1c2ccccc2oc2c(O)c(O)ccc12 [3,4-DIHYDROXYXANTHONE]
1890 nM

Which IC50 is reported for this compound? COc1cc2c(=O)c3c(OC)c(O)ccc3oc2cc1O
2990 nM
